- measured-on: T1, DVL3, Q92997
- T1 sequence (Q92997 244-331, limits assumed, looked up): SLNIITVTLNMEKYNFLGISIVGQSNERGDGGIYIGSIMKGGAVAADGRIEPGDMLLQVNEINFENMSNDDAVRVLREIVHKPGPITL
- experiment-notes: holdup assay
- Parameters: key: below the threshold = too weak to quantify, mostly under pKd 3.1 to 4
- applied-conditions: plain residues with an end cap or a label only (N-terminal biotin on a linker: ado-ado)
reported-metric: pKd

Task: Returns the measured pKd for the input binder. Input: TSQESEDTYL [TBC1D10A, Q9BXI6]
Output: below the threshold

Task: Returns the measured pKd for the input binder. Input: SAAKVLTSMC [GHRHR, Q02643]
Output: below the threshold

Task: Returns the measured pKd for the input binder. Input: EKKTLIGIKL [GOT1L1, Q8NHS2]
Output: below the threshold

Task: Returns the measured pKd for the input binder. Input: SGSLKLMTTV [DACT1, Q9NYF0]
Output: below the threshold

Task: Returns the measured pKd for the input binder. Input: HLRARKSEWV [GJD4, Q96KN9]
Output: 3.79

Task: Returns the measured pKd for the input binder. Input: HSGYRLNDYV [CLDN14, O95500]
Output: 3.66

Task: Returns the measured pKd for the input binder. Input: TLPRKRMSSI [GPRC6A, Q5T6X5]
Output: below the threshold

New cases:
Task: Returns the measured pKd for the input binder. Input: SKENVQETQI [LRRC4B, Q9NT99]
Output: below the threshold
